Test: Caco-2 permeability assay
Format: in vitro ADME
Settings: human; Caco-2 cell assay
measured.parameter: Papp B→A (nm/s)
Give the quantity in nm/s, number only.

Please list Papp B→A recorded for the compound Cc1cccc(CN(C)c2ncnc3[nH]c(-c4ccc(CO)cc4)cc23)c1
1.9

====

Entries and their measured Papp B→A follow.
Assay: MDCK permeability assay
Type: in vitro ADME, canine
Conditions: dog; MDCK cell monolayer, B-A direction
Please report the result as a number followed by the unit.

Answered cases to consult:
Cc1ccc(Cn2cc(-c3cc4c(N(C)CC5CCOCC5)ncnc4[nH]3)nn2)cc1 [Compound 25b] ... 25.4 ×10⁻⁶ cm/s
Cc1cccc(CN(C)c2ncnc3[nH]c(-c4cn(Cc5cccnc5)nn4)cc23)c1 [Compound 27a] ... 3.18 ×10⁻⁶ cm/s

Hello, please tell me recorded Papp B→A for this one: COc1ccc(-n2cc(-c3cc4c(N(C)CC5CCOCC5)ncnc4[nH]3)nn2)cc1 [Compound 21b]
13.6 ×10⁻⁶ cm/s

====

solubility kinetic for assorted compounds
Experiment: Kinetic solubility, spectrophotometric
Format: physicochemical
Settings: aqueous buffer, kinetic from dmso stock, spectrophotometrically at pH 7.4 in HEPES buffer
Express your answer in µM, writing the number without its unit.

Please review the following examples before continuing.
Cc1cccc(CN(C)c2ncnc3[nH]c(-c4cn(Cc5cccnc5)nn4)cc23)c1 [Compound 27a] ... 3.1
Cc1ccc(Cn2cc(-c3cc4c(N(C)CC5CCOCC5)ncnc4[nH]3)nn2)cc1 [Compound 25b] ... 10.6
COc1ccc(-n2cc(-c3cc4c(N(C)CC5CCOCC5)ncnc4[nH]3)nn2)cc1 [Compound 21b] ... 7.3

Name the recorded solubility kinetic of the item Cc1cccc(CN(C)c2ncnc3[nH]c(-c4cn(CC5CCOCC5)nn4)cc23)c1 [Compound 31a] in your answer.
2.5

Answer with reported solubility kinetic of Cc1ccc(-n2cc(-c3cc4c(N(C)Cc5cccc(C)c5)ncnc4[nH]3)nn2)cc1 [Compound 20a]
3

Give me measured solubility kinetic, please, for this compound: CN(CC1CCOCC1)c1ncnc2[nH]c(-c3cn(Cc4cccnc4)nn3)cc12 [Compound 27b]
43

====

Target: cKIT kinase (Homo sapiens, UniProt P10721)
Construct: purchased Carna Biosciences
Sequence (P10721 26-976): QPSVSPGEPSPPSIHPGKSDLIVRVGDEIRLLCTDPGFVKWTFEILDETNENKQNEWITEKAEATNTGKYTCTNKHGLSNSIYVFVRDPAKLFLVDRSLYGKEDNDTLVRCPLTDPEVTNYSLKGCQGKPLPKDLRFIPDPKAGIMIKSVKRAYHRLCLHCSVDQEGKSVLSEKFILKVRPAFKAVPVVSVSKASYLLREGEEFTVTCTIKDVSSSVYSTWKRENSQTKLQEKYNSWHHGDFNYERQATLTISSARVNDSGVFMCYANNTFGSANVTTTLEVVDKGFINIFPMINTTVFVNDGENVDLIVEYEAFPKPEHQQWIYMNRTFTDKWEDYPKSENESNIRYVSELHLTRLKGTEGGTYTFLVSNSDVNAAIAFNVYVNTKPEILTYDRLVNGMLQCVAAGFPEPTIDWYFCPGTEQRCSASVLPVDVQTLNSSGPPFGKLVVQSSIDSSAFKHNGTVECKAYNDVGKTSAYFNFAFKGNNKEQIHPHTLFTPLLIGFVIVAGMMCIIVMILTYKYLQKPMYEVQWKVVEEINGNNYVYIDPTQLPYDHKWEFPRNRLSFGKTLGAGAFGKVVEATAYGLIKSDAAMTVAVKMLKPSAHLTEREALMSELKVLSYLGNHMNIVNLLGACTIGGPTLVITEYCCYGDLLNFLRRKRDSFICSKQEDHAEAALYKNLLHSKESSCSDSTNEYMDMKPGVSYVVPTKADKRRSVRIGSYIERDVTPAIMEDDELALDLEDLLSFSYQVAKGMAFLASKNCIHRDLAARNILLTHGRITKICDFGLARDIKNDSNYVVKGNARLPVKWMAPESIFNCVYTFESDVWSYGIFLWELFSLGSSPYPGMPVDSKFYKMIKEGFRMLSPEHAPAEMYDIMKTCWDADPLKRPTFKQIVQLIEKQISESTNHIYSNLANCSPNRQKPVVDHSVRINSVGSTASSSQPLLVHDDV
Assay: KIT inhibition (KD), TR-FRET tracer displacement
Type: binding
Details: kinase tracer 236, anti-GST antibody Eu-conjugate, read-out: KIT enz. KD
Some compounds, each annotated with its measured Kd.

Cc1cccc(CN(C)c2ncnc3[nH]c(-c4cn(Cc5cccnc5)nn4)cc23)c1 [Compound 27a] ... 793 nM
Cc1ccc(Cn2cc(-c3cc4c(N(C)CC5CCOCC5)ncnc4[nH]3)nn2)cc1 [Compound 25b] ... > 100 nM

API: the following record is the query input.
Hello, please tell me recorded Kd for this one: COc1ccc(-n2cc(-c3cc4c(N(C)CC5CCOCC5)ncnc4[nH]3)nn2)cc1 [Compound 21b]
> 1000 nM

====

Test system: CSF1R Ba/F3 cells
Test: Cell viability assay, Ba/F3 cells engineered to be dependent on CSF1R
Type: cell-based
Details: Mus musculus, BaF3, Ba/F3 cells dependent on CSF1R, duplicate measurements
measured.parameter: pIC50
The read-out pIC50 is expressed as -log10 of concentration in moles per litre.

CN(CC1CCOCC1)c1ncnc2[nH]c(-c3cn(Cc4cccnc4)nn3)cc12 [Compound 27b] ... 5.77
FC(F)(F)c1ccc(CNc2ccc(Cc3c[nH]c4ncc(Cl)cc34)cn2)cn1 [PLX-3397, pexidartinib, reference compound] ... 7.22
Cc1cccc(CN(C)c2ncnc3[nH]c(-c4cn(Cc5cccnc5)nn4)cc23)c1 [Compound 27a] ... 6.52
Cc1cccc(CN(C)c2ncnc3[nH]c(-c4cn(CC5CCOCC5)nn4)cc23)c1 [Compound 31a] ... 5.57
Cc1ccc(Cn2cc(-c3cc4c(N(C)CC5CCOCC5)ncnc4[nH]3)nn2)cc1 [Compound 25b] ... 6.00

Okay, next one:
System CSF1R Ba/F3 cells. Read-out pIC50. Item COc1ccc(-n2cc(-c3cc4c(N(C)CC5CCOCC5)ncnc4[nH]3)nn2)cc1 [Compound 21b] . Report value.
6.22
